Test: Human HepG2 cell viability assay in 384 well format
Format: toxicity, cell-based
Set-up: dose 125 nL, time 70.5 hour; concentration not given beside the values
Conditions: HepG2 cells, read-out: Inhibition
Reported cytotoxicity at 70.5 h values are given for each entry in this list.
observable: cytotoxicity at 70.5 h (%)

INSERT INTO assay_data (compound, unit_of_measurement, endpoint_result) VALUES
  ('COC[C@@]12CCC[C@@H]1CN(C(=O)Cc1ccccn1)C2', '%', 9.13),
  ('Cc1cccc(C2CCCN2C(=O)CN(C)S(C)(=O)=O)c1C (configuration not stated)', '%', -5.26),
  ('CNC(=O)NC(=O)C(NCc1cccs1)c1ccccc1 (configuration not stated)', '%', 34.4),
  ('CCc1nc(-c2ccc(C(=O)N3CCC4(CC3)OCCO4)cc2)no1', '%', -21.2),
  ('OCC1(O)CCCN(Cc2ccc(-c3cc[nH]n3)s2)CC1 (configuration not stated)', '%', -9.87),
  ('NC(=O)c1ccc(N2CCCCC2)c(NC(=O)c2cc(Br)ccc2Cl)c1', '%', 16.1),
  ('O=C(Nc1ccc(F)cc1)C(c1ccccc1)N1CCOCC1 (configuration not stated)', '%', 5.55),
  ('CCCN1CCC(c2nc3ccc(C)cn3n2)CC1', '%', -6.41),
  ('N#CCCN(CC1CCOC1)Cn1ccc(-c2ccsc2)n1 (configuration not stated)', '%', 0.369),
  ('Cn1ccnc1SC1CCc2ccccc2NC1=O (configuration not stated)', '%', -23.5),
  ('Clc1ccc2cccnc2c1CN1CCCC1Cn1cncn1 (configuration not stated)', '%', -17.7),
  ('CNCc1cn(C[C@H]2CC3CCN2C[C@@H]3C(=O)Nc2ccccc2)nn1 (some centres not stated)', '%', -9.94);

----------
This section presents compounds with their documented cytotoxicity at 70.5 h values.
Experiment: Human HepG2 cell viability assay in 384 well format
Type: toxicity, cell-based
Parameters: dose 125 nL, time 70.5 hour; concentration not given beside the values
Conditions: HepG2 cells, read-out: Inhibition
observable: cytotoxicity at 70.5 h (%)

INSERT INTO results (compound, observable, endpoint_result) VALUES
  ('CN(C)C1CC2(CCN(C(=O)NC3CC3)CC2)c2ccccc21 (centres undefined)', 'cytotoxicity at 70.5 h', -7.23),
  ('COc1c(CNC2CCc3cc(C)ccc32)c(C)nn1C (centres undefined)', 'cytotoxicity at 70.5 h', -1.11),
  ('COc1cccc(OCc2cc(C(=O)N3CC(O)C3)n[nH]2)c1', 'cytotoxicity at 70.5 h', -2.2),
  ('CC(O)CN1CCC(CNCc2cn(-c3ccccc3)nn2)CC1 (centres undefined)', 'cytotoxicity at 70.5 h', -9.21),
  ('Cn1nc(C(=O)NCc2cccs2)c2c1CCS(=O)(=O)C2', 'cytotoxicity at 70.5 h', -6.12),
  ('CCn1ccnc1CN(C)C(C(=O)O)c1ccc(C(C)(C)C#N)cc1 (centres undefined)', 'cytotoxicity at 70.5 h', -4.97),
  ('COc1ccccc1-c1ncc(CN2CCCC(CCC(N)=O)C2)s1 (centres undefined)', 'cytotoxicity at 70.5 h', -10.1),
  ('OCCNC1CCc2cc3c(cc21)OCCO3 (centres undefined)', 'cytotoxicity at 70.5 h', 9.99),
  ('CCn1cncc1CN1CCc2nc3sccc3c(=O)n2CC1', 'cytotoxicity at 70.5 h', -5.29),
  ('O=C1c2cnc(N3CCOCC3)nc2CN1c1ccc2c(c1)OCO2', 'cytotoxicity at 70.5 h', -5.67),
  ('CC(=O)N1CCC(C(=O)c2cnn(-c3ccccc3)c2N)C1 (centres undefined)', 'cytotoxicity at 70.5 h', -7.91),
  ('CC1=CC[C@@H]2CN(C(=O)c3ccc(-c4cc[nH]n4)cc3)C[C@@H]2C1', 'cytotoxicity at 70.5 h', 0.519),
  ('O=C(Nc1ccc(CCN2CCOCC2)cc1)C1CC1', 'cytotoxicity at 70.5 h', -4.46),
  ('COc1ccc(COCC(=O)NC2CCc3nc(C)cn3C2)cc1 (centres undefined)', 'cytotoxicity at 70.5 h', -2.95),
  ('COc1cccc(OCC2CCCN(C(=O)c3ccc(N)nc3)C2)c1 (centres undefined)', 'cytotoxicity at 70.5 h', -11.6),
  ('Cc1cccc(C2(O)CCN(Cc3ccccc3N3CCCC3)CC2)c1', 'cytotoxicity at 70.5 h', 16.9),
  ('O=C(O)C1(Oc2ccc(Cl)cc2)CCN(C2CCOCC2)CC1', 'cytotoxicity at 70.5 h', -17.1),
  ('CCN1CC(CN(C)Cc2nc(-c3cccc(Cl)c3)oc2C)CC1=O (centres undefined)', 'cytotoxicity at 70.5 h', -6.94),
  ('CN(C)Cc1nc(C2(NC(=O)Nc3cccc(F)c3)CCCC2)no1', 'cytotoxicity at 70.5 h', -2.26),
  ('COC1(CNC(=O)CCCc2ccccc2)CCSC1 (centres undefined)', 'cytotoxicity at 70.5 h', -0.238),
  ('c1cnn(Cc2cn3c(n2)CN(Cc2nccs2)CC3)c1', 'cytotoxicity at 70.5 h', -3.15),
  ('CSc1ncc(C(=O)N2C[C@H]3CC[C@@H]2CN(Cc2ccccc2)C3)cn1', 'cytotoxicity at 70.5 h', -1.13),
  ('NC(=O)c1ccc(S(=O)(=O)NC(=O)COc2ccc3c(c2)CCC3)cc1', 'cytotoxicity at 70.5 h', -6.16),
  ('CC(C)c1ncc(CN2CCCC2c2[nH]ncc2C(=O)N(C)C)cn1 (centres undefined)', 'cytotoxicity at 70.5 h', -5.06);

----------
Test: Human HepG2 cell viability assay in 384 well format
Format: toxicity, cell-based
Parameters: dose 125 nL, time 70.5 hour; concentration not given beside the values
Conditions: HepG2 cells, read-out: Inhibition
The entries below come with measured cytotoxicity at 70.5 h values attached.
observable: cytotoxicity at 70.5 h (%)

INSERT INTO results (compound, observable, unit_of_measurement, endpoint_result) VALUES
  ('CN(C)C(=O)c1cc(-c2cnc(N)nc2)nc2cc(F)ccc12', 'cytotoxicity at 70.5 h', '%', -2.39),
  ('O=C(CCC1CCCO1)NCCN1CCCCC1 (configuration not stated)', 'cytotoxicity at 70.5 h', '%', -3.64),
  ('CC(C)c1nccn1CCC(=O)N1CCCC1c1cccn1C (configuration not stated)', 'cytotoxicity at 70.5 h', '%', -3.96),
  ('Cc1sc(-c2ccco2)nc1C(=O)N(CC1CCOC1)C1CC1 (configuration not stated)', 'cytotoxicity at 70.5 h', '%', -1.94),
  ('Cc1cccc(CN2CCCC3(Cc4ccccc4CNC3=O)C2)n1 (configuration not stated)', 'cytotoxicity at 70.5 h', '%', -5.77),
  ('CC(C)n1cnnc1CN(C)Cc1ccc(CN(C)S(C)(=O)=O)o1', 'cytotoxicity at 70.5 h', '%', -2.72),
  ('O=C(c1cccc(NCCOc2ccc(F)cc2)c1)N1CCOCC1', 'cytotoxicity at 70.5 h', '%', 4.98),
  ('CCC(=O)N1CCCC(C(=O)NCc2noc(Cc3ccccc3)n2)C1 (configuration not stated)', 'cytotoxicity at 70.5 h', '%', -12.1),
  ('CCc1c(O)nc(SCC(=O)N(CC)CC)n(C(C)CC)c1=O (configuration not stated)', 'cytotoxicity at 70.5 h', '%', -0.0297),
  ('Cc1nn(C)cc1C(C)Nc1ncnc2sccc12 (configuration not stated)', 'cytotoxicity at 70.5 h', '%', 19.1),
  ('Cc1nc(O)cc(C2(C)CCCNC2)n1 (configuration not stated)', 'cytotoxicity at 70.5 h', '%', -3.13),
  ('Cc1ccoc1C(=O)N1CCO[C@H]2[C@H](OCCN(C)C)CC[C@@H]21', 'cytotoxicity at 70.5 h', '%', -12.4);

----------
Assay: Human HepG2 cell viability assay in 384 well format
Assay type: toxicity, cell-based
Parameters: dose 125 nL, time 70.5 hour; concentration not given beside the values
Conditions: HepG2 cells, read-out: Inhibition
observable: cytotoxicity at 70.5 h (%)

INSERT INTO results (compound, observable, endpoint_result) VALUES
  ('O=C1C(Sc2cnn[nH]2)CCCN1c1ccccc1F (stereo not drawn)', 'cytotoxicity at 70.5 h', 19),
  ('Cc1ccc(C2CSCCN2C(=O)c2cnsn2)o1 (stereo not drawn)', 'cytotoxicity at 70.5 h', -10.7),
  ('O=C(CN1CCS(=O)(=O)CC1)NCc1cccc(Br)c1', 'cytotoxicity at 70.5 h', -2.1),
  ('CCCC(=O)NCC(Cc1cccc(F)c1)N1CCCC1=O (stereo not drawn)', 'cytotoxicity at 70.5 h', -3.15),
  ('O=C1CC(c2ccc(O)cc2)c2sc(C(=O)O)c(-c3ccccc3)c2N1 (stereo not drawn)', 'cytotoxicity at 70.5 h', -16.3),
  ('O=C(NCc1nnc2n1CCC2)c1cn(-c2ccccc2)nn1', 'cytotoxicity at 70.5 h', -5.59),
  ('CCN(Cc1ccc(CN(C)C)cc1)C(=O)c1ccncc1O', 'cytotoxicity at 70.5 h', -11.2),
  ('CC/C=C(/C)C(=O)NCCc1csc(N2CCCC2)n1', 'cytotoxicity at 70.5 h', -0.998),
  ('CCCn1cc(S(=O)(=O)N(C)Cc2nonc2C)c(C)n1', 'cytotoxicity at 70.5 h', -3.71),
  ('Cc1cccc(C(=O)N2CCCCC2c2ccc(CN(C)C)cc2)c1 (stereo not drawn)', 'cytotoxicity at 70.5 h', -8.71),
  ('O=C(NCC1CC1)C1=NOC2(CCN(S(=O)(=O)c3cccs3)C2)C1 (stereo not drawn)', 'cytotoxicity at 70.5 h', -10),
  ('N#Cc1cccc(N2CCC(CO)(CCOc3ccccc3)CC2)n1', 'cytotoxicity at 70.5 h', -4.29),
  ('CC(C)c1nc(CN2CCCN(Cc3nccn3C)CC2)no1', 'cytotoxicity at 70.5 h', 18.1),
  ('O=C(CN1CCOC(c2ccc(Cl)s2)C1)NCc1ccco1 (stereo not drawn)', 'cytotoxicity at 70.5 h', 17),
  ('COCc1noc(CN2C(=O)OC[C@@H]2C(C)C)n1', 'cytotoxicity at 70.5 h', 19.3),
  ('CCNC(=O)[C@@H]1C[C@@H](N)CN1C(=O)C1(c2ccc(OC)cc2)CCCC1', 'cytotoxicity at 70.5 h', -9.96),
  ('CN(c1ccccc1)c1ccc(CC2CCCN(CCO)C2)nn1 (stereo not drawn)', 'cytotoxicity at 70.5 h', 30.2),
  ('CC(NC(=O)N1CCN(c2cccs2)CC1)c1ccncc1 (stereo not drawn)', 'cytotoxicity at 70.5 h', -3.43),
  ('O=S(=O)(CCNCc1ccc(Cl)cc1)N1CCOCC1', 'cytotoxicity at 70.5 h', 15.5),
  ('O=C(Nc1ccc(-c2nc3c([nH]2)CCNC3)cc1)N1CCCC1', 'cytotoxicity at 70.5 h', -15.7),
  ('CC(C)(C)c1cn2nc(N3CCCCC3Cn3cncn3)sc2n1 (stereo not drawn)', 'cytotoxicity at 70.5 h', 4.02),
  ('O=C(c1ccc(S(=O)(=O)NCc2ccon2)cc1)N1CCNCC1', 'cytotoxicity at 70.5 h', -6.36),
  ('CCc1nnsc1C(=O)N(C)Cc1ccco1', 'cytotoxicity at 70.5 h', -1.63),
  ('CN1CCN(C(=O)Cc2ccsc2)Cc2cccnc21', 'cytotoxicity at 70.5 h', -1.77),
  ('O=S1(=O)NC2(CCCN(CCc3ccccc3)C2)COc2ccccc21 (stereo not drawn)', 'cytotoxicity at 70.5 h', 0.68),
  ('Cc1ccc(CNC(=O)NC(C)CN2CCOCC2)s1 (stereo not drawn)', 'cytotoxicity at 70.5 h', -6.15),
  ('CC(=O)Nc1nc(CN2CCn3c(nnc3C3CC3)C2)cs1', 'cytotoxicity at 70.5 h', -7.7),
  ('COCCNc1nc2c(c(NCc3cnc(C)c(C)c3)n1)CCNCC2', 'cytotoxicity at 70.5 h', -3.2),
  ('O=C(O)CC1COCCN1Cc1ccccc1OCCc1ccccc1 (stereo not drawn)', 'cytotoxicity at 70.5 h', -3.62),
  ('CC(C)C[C@H](N)COc1cccc(F)c1Oc1ccccc1', 'cytotoxicity at 70.5 h', 19.1),
  ('O=C(NCCc1cccs1)[C@H]1CO[C@H]2CCNC[C@H]2C1', 'cytotoxicity at 70.5 h', -15),
  ('O=C1CC(c2ccc(C(=O)O)cc2)c2ncn(-c3ccc(F)cc3)c2N1 (stereo not drawn)', 'cytotoxicity at 70.5 h', -4.89),
  ('N#Cc1cccnc1N1CCCN(C(=O)CCn2cncn2)CC1', 'cytotoxicity at 70.5 h', -4.22),
  ('Cc1nc(C(C)C)sc1C(=O)N1CCC(N2CCSCC2)CC1', 'cytotoxicity at 70.5 h', -12.7),
  ('Cc1nc(N2Cc3cnn(Cc4ccc(F)cc4)c3C2)no1', 'cytotoxicity at 70.5 h', 13.6),
  ('Cc1ccsc1CN(C)CCc1scnc1C', 'cytotoxicity at 70.5 h', 14.4),
  ('CCCN(CC1CC1)C(=O)Nc1ccc(N2CCSCC2)cc1C', 'cytotoxicity at 70.5 h', -8.14),
  ('COc1cccc(N2CC3(CCN(c4cc(OC)ncn4)C3)CC2=O)c1 (stereo not drawn)', 'cytotoxicity at 70.5 h', 7.12),
  ('Cc1cnc(N2CCc3c(CNc4ccnc(C)n4)cncc3C2)nc1', 'cytotoxicity at 70.5 h', 18.6),
  ('COCc1cnc2n1CCN(C(=O)c1cnc3ccccc3c1)C2C (stereo not drawn)', 'cytotoxicity at 70.5 h', -9.53),
  ('Cc1cc(CN(C)C(=O)C(c2ccccc2)N2CCSCC2)no1 (stereo not drawn)', 'cytotoxicity at 70.5 h', 8.49),
  ('N#Cc1ccc(CN2CCCC(Cn3cncn3)C2)c(F)c1 (stereo not drawn)', 'cytotoxicity at 70.5 h', 8.28),
  ('CC(C(=O)NCC(C)(C)c1ccc2c(c1)OCO2)n1ccnc1 (stereo not drawn)', 'cytotoxicity at 70.5 h', -1.09),
  ('O=C1CC[C@H](C(=O)N(Cc2cccc(Br)c2)C2CC2)N1', 'cytotoxicity at 70.5 h', 2.31),
  ('CCOCCn1nc(C)cc1C(=O)N1CCC2(CC1)[C@H](O)C[C@@H]2OCC', 'cytotoxicity at 70.5 h', 0.508),
  ('CCc1noc(CN(C)C(=O)C(C)(C)Oc2cccc(Cl)c2)n1', 'cytotoxicity at 70.5 h', 7.49),
  ('CN1CC2(CCN(C(=O)c3cc(-n4cccn4)ccc3Cl)CC2)OC1=O', 'cytotoxicity at 70.5 h', 7.23),
  ('Cn1ccc(C(=O)NCc2ccc(CN3CCCCC3)cc2)cc1=O', 'cytotoxicity at 70.5 h', -12);
